# Test system: Fibroblast
# ASSAY_TEXT: Multiplex assay against human fibroblast
# Assay type: toxicity, cell-based
# DETAILS: 12 h, 10 µM, compound concentration 10 uM, replicate 1
Measured Population Membrane Permeable-Phenotype (%), listed per entry for reference.
The response must be a number in % with no trailing unit.

Field: example entries. Status: answers known.
CN(C)C(=O)N[C@H]1CC[C@H](CCN2CCN(c3cccc(Cl)c3Cl)CC2)CC1.Cl [CARIPRAZINE HYDROCHLORIDE]; 16
CN1CCC[C@@H]1CCO[C@](C)(c1ccccc1)c1ccc(Cl)cc1.O=C(O)/C=C/C(=O)O [CLEMASTINE FUMARATE]; 11
Cc1nc(Nc2n[nH]c3c2CN(C(=O)N[C@H](CN(C)C)c2ccccc2)C3(C)C)c2sccc2n1 [PF-03758309]; 9
CN1CCN(CCOc2cc(OC3CCOCC3)c3c(Nc4c(Cl)ccc5c4OCO5)ncnc3c2)CC1 [SARACATINIB]; 16

Please turn your attention to the following entry.
Prompt: Recorded Population Membrane Permeable-Phenotype (%) for C[C@@H](NCCCc1cccc(C(F)(F)F)c1)c1cccc2ccccc12.Cl [CINACALCET HYDROCHLORIDE] , please?
Response: 4
